- Tested on: DLK;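 also: KINOMEscan kinase panel screen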
- Construct: gene MAP3K12
- Condition Description: concentration: 1 μM, replicates: in singlicate; n = 1
Property Label: %Inh (%)

                                   compound  observed
0  O=S(=O)(c1ccc(-c2ccnc3[nH]ccc23)cc1)N1CCCC1 [GSK846226]         0
1  COc1ccc(Nc2nccc(NCCNC(=O)Nc3ccccc3F)n2)cc1 [GSK1379901]         0
2  O=C1NC(=O)C(N2CCc3ccccc32)=C1c1ccccc1Cl [SB-373598]         0
3  CN1C(=O)C(Nc2ccc(Cl)c(C(=O)O)c2)=C(c2ccc(Cl)cc2)C1=O [SB-404290]         0
4  Fc1cc(Cl)ccc1Nc1ccnc2cc(-c3ccc(CN4CCCCC4)o3)ccc12 [GW560116]        36
